The entries below are paired with their reported inhibition.
biological target: Inhibitor of nuclear factor kappa-B kinase subunit beta (Homo sapiens) (UniProt O14920); assay: In vitro percent inhibition of I-kappa-B-kinase beta at 10 uM concentration of compound dissolved in 100% DMSO using 5''-[gamma-33P]-triphosphate
Sequence (O14920 whole entry): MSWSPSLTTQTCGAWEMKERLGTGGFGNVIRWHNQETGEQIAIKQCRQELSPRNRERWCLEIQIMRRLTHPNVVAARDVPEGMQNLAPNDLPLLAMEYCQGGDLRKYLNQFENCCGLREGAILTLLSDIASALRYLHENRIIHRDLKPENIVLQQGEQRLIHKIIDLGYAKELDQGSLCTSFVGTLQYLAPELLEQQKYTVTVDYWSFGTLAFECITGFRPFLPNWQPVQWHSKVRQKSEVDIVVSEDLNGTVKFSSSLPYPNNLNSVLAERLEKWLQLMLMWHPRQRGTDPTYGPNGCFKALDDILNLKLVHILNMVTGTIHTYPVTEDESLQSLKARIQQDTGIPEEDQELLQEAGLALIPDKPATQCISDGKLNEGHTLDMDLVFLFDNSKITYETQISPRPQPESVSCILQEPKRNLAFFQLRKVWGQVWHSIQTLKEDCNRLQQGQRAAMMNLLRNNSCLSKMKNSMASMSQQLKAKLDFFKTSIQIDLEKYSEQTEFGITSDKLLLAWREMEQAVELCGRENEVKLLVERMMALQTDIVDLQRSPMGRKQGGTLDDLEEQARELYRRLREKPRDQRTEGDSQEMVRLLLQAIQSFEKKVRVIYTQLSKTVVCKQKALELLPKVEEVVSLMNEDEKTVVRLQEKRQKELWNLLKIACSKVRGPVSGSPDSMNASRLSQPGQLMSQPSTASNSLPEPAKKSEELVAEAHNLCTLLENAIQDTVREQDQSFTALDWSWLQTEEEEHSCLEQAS
Numeric answer only, unit % assumed.

Some entries whose results are on file:
O=C(O)CCc1ccc(-c2nc3cc4ccccc4cc3nc2-c2ccc(CCC(=O)O)s2)s1
54
Oc1cc2nc(-c3cccs3)c(-c3cccs3)nc2cc1O
3
COc1cc2nc3nc(-c4cccs4)c(-c4cccs4)nc3nc2cc1OC
10
O=C(O)Cc1csc(-c2nc3cc4ccccc4cc3nc2-c2cc(CC(=O)O)cs2)c1
37
O=C(O)Cc1ccc(-c2nc3cc4ccccc4cc3nc2-c2ccc(CC(=O)O)s2)s1
25
O=C(O)c1ccc(-c2nc3cc4ccccc4cc3nc2-c2ccc(C(=O)O)s2)s1
29
c1csc(-c2nc3cc4c(cc3nc2-c2cccs2)OCO4)c1
28
c1csc(-c2nc3cc4c(cc3nc2-c2cccs2)OCCCO4)c1
22
O=C(O)c1ccc2cc3nc(-c4cccs4)c(-c4cccs4)nc3cc2c1
42

Could you share which inhibition value was measured for COC(=O)CCCc1ccc(-c2nc3cc4ccccc4cc3nc2-c2ccc(CCCC(=O)OC)s2)s1 ? 16

###

target: Casein kinase I isoform alpha (Homo sapiens); experiment: In vitro percent inhibition of Casein kinase 1 alpha at 10 uM concentration of compound dissolved in 100% DMSO using 5''-[gamma-33P]-triphosphate
inhibition reference
Expressed in %, but write only the number.

COc1cc2nc3nc(-c4cccs4)c(-c4cccs4)nc3nc2cc1OC
2
O=C(O)c1ccc2cc3nc(-c4cccs4)c(-c4cccs4)nc3cc2c1
10
COC(=O)CCCc1ccc(-c2nc3cc4ccccc4cc3nc2-c2ccc(CCCC(=O)OC)s2)s1
30
Oc1cc2nc(-c3cccs3)c(-c3cccs3)nc2cc1O
9
COC(=O)CCc1ccc(-c2nc3cc4ccccc4cc3nc2-c2ccc(CCC(=O)OC)s2)s1
14

Sample c1csc(-c2nc3cc4ccccc4cc3nc2-c2cccs2)c1 — what was its inhibition? 7

Cool, now O=C(O)C1COc2cc3nc(-c4cccs4)c(-c4cccs4)nc3cc2O1 (configuration not stated) 15

Would you mind doing O=C(O)Cc1ccc(-c2nc3cc4ccccc4cc3nc2-c2ccc(CC(=O)O)s2)s1 as well? -2

Now try c1csc(-c2nc3cc4c(cc3nc2-c2cccs2)OCCO4)c1 . 8

###

test: In vitro percent inhibition of Cyclin-dependent kinase 2-cyclin A at 10 uM concentration of compound dissolved in 100% DMSO using 5''-[gamma-33P]-triphosphate
Entries and their inhibition
Return type: number; implicit unit %.

Some solved entries appear below for comparison.
O=C(O)c1ccc(-c2nc3cc4ccccc4cc3nc2-c2ccc(C(=O)O)s2)s1
3
O=C(O)Cc1csc(-c2nc3cc4ccccc4cc3nc2-c2cc(CC(=O)O)cs2)c1
-5

Could you now look at the following compound, please?
Recorded inhibition of COC(=O)Cc1csc(-c2nc3cc4ccccc4cc3nc2-c2cc(CC(=O)OC)cs2)c1 , please. -4

###

target: Ribosomal protein S6 kinase (P70S6K) (Homo sapiens) (UniProt Q9UBS0+P23443); assay: In vitro percent inhibition of Ribosomal protein S6 kinase at 10 uM concentration of compound dissolved in 100% DMSO using 5''-[gamma-33P]-triphosphate; assay type: protein-complex assay
Recorded inhibition by entry
Write it as a number; the unit % goes unstated.

State the recorded inhibition for this entry: COC(=O)CCCc1ccc(-c2nc3cc4ccccc4cc3nc2-c2ccc(CCCC(=O)OC)s2)s1 -7

Try this molecule next: COC(=O)Cc1csc(-c2nc3cc4ccccc4cc3nc2-c2cc(CC(=O)OC)cs2)c1 -5

# iterate: O=C(O)c1ccc(-c2nc3cc4ccccc4cc3nc2-c2ccc(C(=O)O)s2)s1 14

Query c1csc(-c2nc3cc4c(cc3nc2-c2cccs2)OCCCO4)c1 next 2

Follow-up item: O=C(O)CCc1ccc(-c2nc3cc4ccccc4cc3nc2-c2ccc(CCC(=O)O)s2)s1 29

Now the same for O=C(O)CCCc1ccc(-c2nc3cc4ccccc4cc3nc2-c2ccc(CCCC(=O)O)s2)s1 18

Entry to check: O=C(O)c1ccc2cc3nc(-c4cccs4)c(-c4cccs4)nc3cc2c1 5

Now consider c1csc(-c2nc3cc4ccccc4cc3nc2-c2cccs2)c1 and answer again. 8

Thanks! And COc1cc2nc(-c3cccs3)c(-c3cccs3)nc2cc1OC ? -9

Thanks! And O=C(O)Cc1ccc(-c2nc3cc4ccccc4cc3nc2-c2ccc(CC(=O)O)s2)s1 ? 17
